Source listed as patent US5753617A.

# TARGET_OF_ASSAY: P-selectin (Homo sapiens, UniProt P16109)
# Construct: P-selectin is isolated from human platelet lysates; from tissue; host or cells: human platelets (outdated platelet packs from a blood bank)
# Sequence (P16109 42-830): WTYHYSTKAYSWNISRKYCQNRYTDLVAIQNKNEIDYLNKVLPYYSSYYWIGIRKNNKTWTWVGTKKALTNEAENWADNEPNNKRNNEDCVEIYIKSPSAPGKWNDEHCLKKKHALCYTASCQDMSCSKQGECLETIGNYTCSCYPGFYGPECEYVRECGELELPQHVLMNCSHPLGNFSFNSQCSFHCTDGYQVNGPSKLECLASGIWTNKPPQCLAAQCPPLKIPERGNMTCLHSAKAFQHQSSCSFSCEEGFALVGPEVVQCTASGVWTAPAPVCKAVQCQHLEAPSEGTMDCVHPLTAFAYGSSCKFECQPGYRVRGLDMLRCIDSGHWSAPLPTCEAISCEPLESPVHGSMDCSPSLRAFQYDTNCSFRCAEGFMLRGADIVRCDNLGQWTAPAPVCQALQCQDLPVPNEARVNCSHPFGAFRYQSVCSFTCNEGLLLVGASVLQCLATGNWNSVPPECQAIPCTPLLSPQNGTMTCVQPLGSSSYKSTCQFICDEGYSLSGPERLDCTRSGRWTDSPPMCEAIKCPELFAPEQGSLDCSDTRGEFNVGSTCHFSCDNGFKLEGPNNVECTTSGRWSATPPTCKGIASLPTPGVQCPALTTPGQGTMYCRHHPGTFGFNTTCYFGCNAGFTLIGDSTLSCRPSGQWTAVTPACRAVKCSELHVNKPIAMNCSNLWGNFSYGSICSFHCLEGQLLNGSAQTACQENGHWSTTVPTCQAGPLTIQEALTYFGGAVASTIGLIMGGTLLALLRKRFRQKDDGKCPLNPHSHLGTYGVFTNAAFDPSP
# PROCEDURE_DETAILS: Inhibition of human neutrophil adhesion to purified P-selectin immobilized on plastic wells
# Type: cell-based
# TEST_CONDITIONS: inhibiting the binding of human neutrophils to P-selectin
# Text: Peptides can be screened for their ability to inhibit adhesion to cells, for example, neutrophil adhesion to purified P-selectin immobilized on plastic wells, using the assay described by Geng, et al., Nature 343, 757-760 (1990). Human neutrophils are isolated from heparinized whole blood by density gradient centrifugation on Mono-Poly resolving media, Flow Laboratories. […] Peak fractions with absorbance at 280 nm are pooled. […]
Where a SMILES comes first, the peptide text is derived from it. Bridges are numbered along the chain shown (N, C = ends). [ ]: non-standard residue; d: D form.
Reported pIC50 by item:
Interpret pIC50 as the negative base-10 log of the concentration measured in mol/L.

- COMPOUND: "CC(C)[C@@H](NC(=O)[C@@H](Cc1c[nH]c2ccccc12)NC(=O)[C@H](NC(=O)[C@@H](Cc1c[nH]c2ccccc12)NC(=O)[C@H]1CSSC[C@@H](NC(=O)[C@@H](CCCCN)NC(=O)[C@H](N)CCCNC(=N)N)C(=O)N2CCC[C@@H]2C(=O)N[C@@H](Cc2ccccc2)C(=O)N1)[C@H](C)O)C(N)=O [(57)] (H-[dR][dK][dC][dP]F[dC][dW][dT][dW][dV]-NH2; disulfide 3-6)"
  RECORDED_ENDPOINT: "pIC50"
  REPORTED: 4.15
- COMPOUND: "CC[C@@H](C)[C@H]1NC(=O)[C@H](NC(=O)[C@H](N)CCCNC(=N)N)CSSC[C@H](C(=O)N[C@@H](C(=O)N[C@H](Cc2c[nH]c3ccccc23)C(=O)N[C@@H](C(=O)N[C@H](Cc2c[nH]c3ccccc23)C(=O)N[C@@H](C(N)=O)C(C)C)[C@H](C)O)[C@H](C)CC)NC(=O)CNC1=O [(4)] (H-[dR][dC][dI]G[dC][dI][dW][dT][dW][dV]-NH2; disulfide 2-5)"
  RECORDED_ENDPOINT: "pIC50"
  REPORTED: 4.39
- COMPOUND: "CC(C)[C@@H](NC(=O)[C@@H](Cc1c[nH]c2ccccc12)NC(=O)[C@H](NC(=O)[C@H](Cc1c[nH]c2ccccc12)NC(=O)[C@H]1CSSC[C@@H](NC(=O)[C@@H](CCCCN)NC(=O)[C@H](N)CCCNC(=N)N)C(=O)NCC(=O)N[C@@H](Cc2ccccc2)C(=O)N1)[C@H](C)O)C(N)=O [(99)] (H-[dR][dK][dC]GF[dC]W[dT][dW][dV]-NH2; disulfide 3-6)"
  RECORDED_ENDPOINT: "pIC50"
  REPORTED: 5.51

I'd like to know its pIC50. The compound in question is CC(C)[C@@H](NC(=O)[C@@H](Cc1c[nH]c2ccccc12)NC(=O)[C@H](NC(=O)[C@@H](Cc1c[nH]c2ccccc12)NC(=O)[C@H]1CSSC[C@@H](NC(=O)[C@@H](CCC(N)=O)NC(=O)[C@H](N)CCCNC(=N)N)C(=O)NCC(=O)N[C@@H](Cc2ccccc2)C(=O)N1)[C@H](C)O)C(N)=O [(111)] (H-[dR][dQ][dC]GF[dC][dW][dT][dW][dV]-NH2; disulfide 3-6)
4.74
